Provenance of the data: PubChem BioAssay AID720518

test: qHTS for Inhibitors of Cell Surface uPA Generation: Wild-type Protective Antigen (WT-PrAg) Counterscreen for Cherry-picked Compounds; conditions: cells, WT protective antigen toxicity counterscreen; series mostly up to 115 µM
Results filed as inconclusive are left out. Active and inactive are the calls of the source. The call rests on the fitted dose curve.
// allowed return values: active, inactive

[
  {
    "Compound": "CCC(C)Sc1nnc(NS(=O)(=O)Cc2ccccc2)s1 (stereo unspecified)",
    "Category label": "inactive"
  },
  {
    "Compound": "CCc1ccc(NC(=O)Cn2cnc([N+](=O)[O-])c2)cc1",
    "Category label": "inactive"
  },
  {
    "Compound": "C/C(=N\\NC(=O)c1cccc([N+](=O)[O-])c1)c1cccnc1",
    "Category label": "inactive"
  },
  {
    "Compound": "O=C(C1=C[C@H](c2ccccc2)C[C@H](OCCCCO)O1)N1CCN(Cc2ccc3c(c2)OCO3)CC1",
    "Category label": "inactive"
  },
  {
    "Compound": "COc1ccc(-c2cc3nc(C)cc(-c4ccc(OC)cc4)n3n2)cc1",
    "Category label": "inactive"
  }
]

Prompt: What did this assay record as the result for Cc1ccsc1/C=C(\C#N)C(=O)NC1CCS(=O)(=O)C1 (stereo unspecified) ?
Completion: inactive

Prompt: Then this compound: Cc1cc(COc2ccccc2)oc1C(=O)O
Completion: inactive

Prompt: Then this compound: COC(=O)/C(C#N)=C/c1c(N2CCN(c3ccccc3)CC2)nc2c(C)cccn2c1=O
Completion: inactive

Prompt: Then this compound: CCC(C)C1NC(=O)C2CCCN2C(=O)C(CC(C)C)OC(=O)CCNC(=O)C(C)N(C)C(=O)C(C(C)C)N(C)C1=O (stereo unspecified)
Completion: active

Prompt: Then this compound: Cc1ccc(S(=O)(=O)N2CCOCC2)cc1NC(=O)CSc1nc(N)cc(N)n1
Completion: inactive

Prompt: Then this compound: COC(=O)C1C(=O)c2c([nH]c(C(=O)OC3CCCCC3)c2C)CC1C (stereo unspecified)
Completion: inactive

Prompt: Then this compound: COc1ccc([C@H]2[C@H](C(=O)OC(C)(C)C)N3N=Cc4ccccc4C3C23C(=O)c2ccccc2C3=O)cc1OC (stereo partly specified)
Completion: inactive

Prompt: Then this compound: Cc1cccc(NC(=O)C2CCCN(S(=O)(=O)c3cccc4cccnc34)C2)c1 (stereo unspecified)
Completion: inactive

----------
assay: qHTS for Inhibitors of Cell Surface uPA Generation: Wild-type Protective Antigen (WT-PrAg) Counterscreen for Cherry-picked Compounds; settings: cells, WT protective antigen toxicity counterscreen; series mostly up to 115 µM
Records with an inconclusive call do not appear. Activity calls are given as the source filed them. Calls follow the shape of the full dose curve.
Experimental endpoint: outcome

Some entries whose results are on file:
[
  {
    "Compound": "COc1cc2oc(=O)ccc2cc1[C@H](O)[C@@H](O)C(C)(C)O",
    "Result": "inactive"
  },
  {
    "Compound": "CC(C)OC(=O)c1ccc(N2CCN(c3ccccc3F)CC2)nc1",
    "Result": "inactive"
  },
  {
    "Compound": "O=S(=O)(NCCc1ccccc1F)c1cccc(S(=O)(=O)N2CCOCC2)c1",
    "Result": "inactive"
  },
  {
    "Compound": "CC(C)OC(=O)Nc1ccc(-c2ccc(NC(=O)OC(C)C)cc2Cl)c(Cl)c1",
    "Result": "inactive"
  },
  {
    "Compound": "COc1ccc(OC)c(N2C(=O)CC(Cc3cc(C)cc(C)c3)C2=O)c1 (stereo not drawn)",
    "Result": "inactive"
  },
  {
    "Compound": "O=C(C[n+]1ccccc1)Nc1ccccc1C(F)(F)F",
    "Result": "inactive"
  },
  {
    "Compound": "Clc1ccccc1N1CCN(c2ncnc3nc[nH]c23)CC1",
    "Result": "inactive"
  },
  {
    "Compound": "CCc1ccccc1NC(=O)CN(C)C(=O)CSc1nnc(Nc2cccc(C)c2C)s1",
    "Result": "inactive"
  }
]

# batch size: 3; output outcome per entry
1. COc1ccc(C)cc1NC(=O)CSCc1cc(=O)n2c(C)csc2n1
2. CC1(c2cccc([N+](=O)[O-])c2)CC(C)(C)N(C(=O)c2ccccc2)c2ccccc21 (stereo not drawn)
3. CC(C)(C)OC(=O)N(Cc1ccccc1)Cc1ccccc1OCc1cccc(NC(=O)C2CC2)c1

Completion:
["inactive", "inactive", "inactive"]

# batch size: 2; output outcome per entry
1. COc1cc(C(=O)N/N=C(\Cc2ncc[nH]2)c2ccccc2)cc(OC)c1OC
2. CCc1ccc(N2CC(C(=O)Nc3ccc4c(c3)OCO4)CC2=O)cc1 (stereo not drawn)

Completion:
["inactive", "inactive"]

# batch size: 7; output outcome per entry
1. Cc1ccc(NC(=O)CSc2nncn2N)cc1C
2. COc1ccc(NS(=O)(=O)c2c(C)n(C)c(=O)n(C)c2=O)cc1OC
3. COc1cc(NC(=S)NCCc2ccc(S(N)(=O)=O)cc2)c(OC)cc1Cl
4. Cc1cc(C)n(CCCNC(=O)c2ccc(C)o2)n1
5. O=C(CN1CCCC1)Nc1cccc(Cl)c1Cl
6. CCCCNc1c(-c2ccc(-c3cccc(Cl)c3)cc2)nc2ccccn12
7. C[C@H]([C@H](O)c1ccccc1)N(C)C(=O)CN

Completion:
1: inactive; 2: inactive; 3: inactive; 4: inactive; 5: inactive; 6: inactive; 7: inactive

# batch size: 3; output outcome per entry
1. CCCCCn1c(=O)c(C(=O)Nc2ccccn2)c(O)c2ccccc21
2. O=P1(NCCCl)OCCCN1CCCl (stereo not drawn)
3. Cc1[nH]c2ccccc2c1C(=O)C(C)OC(=O)c1ccccc1NCCO (stereo not drawn)

Completion:
["inactive", "inactive", "inactive"]
